Target Entity: human MET (c-Met) on cells (SKOV-3, BxPC3) (human, UniProt P08581 25-1390)
Sequence (P08581 25-1390): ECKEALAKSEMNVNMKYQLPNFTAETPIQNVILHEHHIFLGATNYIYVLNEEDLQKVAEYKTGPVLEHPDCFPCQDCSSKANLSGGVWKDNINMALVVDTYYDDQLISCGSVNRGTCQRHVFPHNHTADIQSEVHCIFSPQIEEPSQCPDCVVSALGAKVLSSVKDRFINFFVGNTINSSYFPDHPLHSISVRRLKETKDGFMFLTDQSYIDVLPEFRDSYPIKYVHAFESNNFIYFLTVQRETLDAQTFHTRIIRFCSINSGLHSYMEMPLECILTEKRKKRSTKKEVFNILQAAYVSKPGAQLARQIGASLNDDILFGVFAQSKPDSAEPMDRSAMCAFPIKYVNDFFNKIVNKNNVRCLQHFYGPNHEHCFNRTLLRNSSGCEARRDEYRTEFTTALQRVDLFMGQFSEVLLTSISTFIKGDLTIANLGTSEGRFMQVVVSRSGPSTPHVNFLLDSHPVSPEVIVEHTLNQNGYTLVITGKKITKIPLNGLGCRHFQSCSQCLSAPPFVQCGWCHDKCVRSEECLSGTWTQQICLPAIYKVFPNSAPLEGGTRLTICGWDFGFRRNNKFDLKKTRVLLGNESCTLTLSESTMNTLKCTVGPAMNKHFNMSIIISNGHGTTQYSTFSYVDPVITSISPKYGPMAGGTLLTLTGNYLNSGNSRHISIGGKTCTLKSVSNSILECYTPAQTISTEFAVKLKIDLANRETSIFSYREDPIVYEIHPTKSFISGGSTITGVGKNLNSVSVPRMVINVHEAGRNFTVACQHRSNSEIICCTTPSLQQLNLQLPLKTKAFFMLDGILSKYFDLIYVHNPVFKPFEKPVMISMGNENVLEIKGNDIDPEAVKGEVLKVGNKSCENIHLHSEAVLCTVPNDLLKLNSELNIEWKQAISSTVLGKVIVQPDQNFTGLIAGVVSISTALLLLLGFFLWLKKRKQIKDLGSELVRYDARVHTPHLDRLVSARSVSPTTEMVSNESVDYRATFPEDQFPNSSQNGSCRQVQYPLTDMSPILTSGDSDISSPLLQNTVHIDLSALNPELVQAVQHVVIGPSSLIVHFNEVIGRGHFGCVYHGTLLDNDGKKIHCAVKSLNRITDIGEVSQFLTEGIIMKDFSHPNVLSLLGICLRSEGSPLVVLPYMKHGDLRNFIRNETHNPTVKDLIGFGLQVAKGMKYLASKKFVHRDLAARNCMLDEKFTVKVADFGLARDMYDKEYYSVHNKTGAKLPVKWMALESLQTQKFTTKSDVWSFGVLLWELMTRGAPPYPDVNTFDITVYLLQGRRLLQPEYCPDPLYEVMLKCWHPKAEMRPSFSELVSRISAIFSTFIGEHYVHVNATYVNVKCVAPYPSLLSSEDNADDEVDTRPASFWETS
Test Name: cell-based or functional assay
Experimental Readout: Mean IC50, inhibition of HGF/SF-induced migration of SKOV-3 cells

# Binder, Measured
data = [
    ("107_A08 Fab (His/tri-FLAG tagged, hinged) (Fab, V domains shown, Fab from pBIOCAM7-3F, hinged, hexahistidine and tri-FLAG tags on the heavy chain) VH: QMQLVQSGAEVKKPGAPVKVSCKVSGYTFTDYYMHWVQQAPGKGLEWMGLVDPEDGETIYAEKFQGRVTITADTSTDTAYMELSSLRSEDTAVYYCATDATTPYWGMVEWGQGTLVTVSS VL: DIQMTQSPSSLSASVGDRVTITCQASQDISNYLNWYQQKPGRAPKVLIYDASNLETGVPSRFSGSGSGTEFTLTISNLRPDDFATYYCQQGDSFPLTFGGGTKVEIK", "10.5 nM"),
    ("107_A07 Fab (His/tri-FLAG tagged, hinged) (Fab, V domains shown, Fab from pBIOCAM7-3F in HEK293 cells, hinged format (Leu-Glu after VH), hexahistidine and tri-FLAG tags on the heavy chain) VH: QMQLVQSGAEVKKPGAPVKVSCKVSGYTFTDYYMHWVQQAPGKGLEWMGLVDPEDGETIYAEKFQGRVTITADTSTDTAYMELSSLRSEDTAVYYCATDATTPYWGMMWWGQGTLVTVSS VL: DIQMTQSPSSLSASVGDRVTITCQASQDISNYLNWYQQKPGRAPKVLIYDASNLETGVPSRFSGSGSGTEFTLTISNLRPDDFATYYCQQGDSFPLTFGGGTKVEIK", "7.4 nM"),
    ("7A2 Fab (His- and FLAG-tagged, hinged format) (Fab, V domains shown, Fab from pBIOCAM7-3F in HEK293 cells, hinged format (Leu-Glu after VH), hexahistidine and tri-FLAG tags at the C-terminus of the heavy chain) VH: QMQLVQSGAEVKKPGAPVKVSCKVSGYTFTDYYMHWVQQAPGKGLEWMGLVDPEDGETIYAEKFQGRVTITADTSTDTAYMELSSLRSEDTAVYYCATDATTPYYGMDVWGQGTLVTVSS VL: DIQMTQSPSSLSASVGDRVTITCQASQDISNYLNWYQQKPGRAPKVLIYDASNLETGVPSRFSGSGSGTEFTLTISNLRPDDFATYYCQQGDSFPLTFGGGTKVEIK", "386 nM"),
    ("110_A01 Fab (His/tri-FLAG tagged, hinged) (Fab, V domains shown, Fab from pBIOCAM7-3F, hinged, hexahistidine and tri-FLAG tags on the heavy chain) VH: QMQLVQSGAEVKKPGAPVKVSCKVSGYTFTDYYMHWVQQAPGKGLEWMGLVDPEDGETIYAEKFQGRVTITADTSTDTAYMELSSLRSEDTAVYYCATDATTPYWFPYLWGQGTLVTVSS VL: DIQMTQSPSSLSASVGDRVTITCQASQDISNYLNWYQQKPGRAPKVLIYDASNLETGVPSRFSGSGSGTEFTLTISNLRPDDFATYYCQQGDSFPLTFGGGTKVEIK", "13.1 nM"),
    ("107_A01 Fab (His/tri-FLAG tagged, hinged) (Fab, V domains shown, Fab from pBIOCAM7-3F, hinged, hexahistidine and tri-FLAG tags on the heavy chain) VH: QMQLVQSGAEVKKPGAPVKVSCKVSGYTFTDYYMHWVQQAPGKGLEWMGLVDPEDGETIYAEKFQGRVTITADTSTDTAYMELSSLRSEDTAVYYCATDATTPYWGMVSWGQGTLVTVSS VL: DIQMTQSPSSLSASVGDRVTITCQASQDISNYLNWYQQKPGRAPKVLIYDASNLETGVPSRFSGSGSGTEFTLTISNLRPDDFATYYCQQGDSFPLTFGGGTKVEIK", "10.6 nM"),
]
